- target-system: Voltage-dependent T-type calcium channel subunit alpha-1G (Homo sapiens, UniProt O43497)
- Sequence (O43497 whole entry): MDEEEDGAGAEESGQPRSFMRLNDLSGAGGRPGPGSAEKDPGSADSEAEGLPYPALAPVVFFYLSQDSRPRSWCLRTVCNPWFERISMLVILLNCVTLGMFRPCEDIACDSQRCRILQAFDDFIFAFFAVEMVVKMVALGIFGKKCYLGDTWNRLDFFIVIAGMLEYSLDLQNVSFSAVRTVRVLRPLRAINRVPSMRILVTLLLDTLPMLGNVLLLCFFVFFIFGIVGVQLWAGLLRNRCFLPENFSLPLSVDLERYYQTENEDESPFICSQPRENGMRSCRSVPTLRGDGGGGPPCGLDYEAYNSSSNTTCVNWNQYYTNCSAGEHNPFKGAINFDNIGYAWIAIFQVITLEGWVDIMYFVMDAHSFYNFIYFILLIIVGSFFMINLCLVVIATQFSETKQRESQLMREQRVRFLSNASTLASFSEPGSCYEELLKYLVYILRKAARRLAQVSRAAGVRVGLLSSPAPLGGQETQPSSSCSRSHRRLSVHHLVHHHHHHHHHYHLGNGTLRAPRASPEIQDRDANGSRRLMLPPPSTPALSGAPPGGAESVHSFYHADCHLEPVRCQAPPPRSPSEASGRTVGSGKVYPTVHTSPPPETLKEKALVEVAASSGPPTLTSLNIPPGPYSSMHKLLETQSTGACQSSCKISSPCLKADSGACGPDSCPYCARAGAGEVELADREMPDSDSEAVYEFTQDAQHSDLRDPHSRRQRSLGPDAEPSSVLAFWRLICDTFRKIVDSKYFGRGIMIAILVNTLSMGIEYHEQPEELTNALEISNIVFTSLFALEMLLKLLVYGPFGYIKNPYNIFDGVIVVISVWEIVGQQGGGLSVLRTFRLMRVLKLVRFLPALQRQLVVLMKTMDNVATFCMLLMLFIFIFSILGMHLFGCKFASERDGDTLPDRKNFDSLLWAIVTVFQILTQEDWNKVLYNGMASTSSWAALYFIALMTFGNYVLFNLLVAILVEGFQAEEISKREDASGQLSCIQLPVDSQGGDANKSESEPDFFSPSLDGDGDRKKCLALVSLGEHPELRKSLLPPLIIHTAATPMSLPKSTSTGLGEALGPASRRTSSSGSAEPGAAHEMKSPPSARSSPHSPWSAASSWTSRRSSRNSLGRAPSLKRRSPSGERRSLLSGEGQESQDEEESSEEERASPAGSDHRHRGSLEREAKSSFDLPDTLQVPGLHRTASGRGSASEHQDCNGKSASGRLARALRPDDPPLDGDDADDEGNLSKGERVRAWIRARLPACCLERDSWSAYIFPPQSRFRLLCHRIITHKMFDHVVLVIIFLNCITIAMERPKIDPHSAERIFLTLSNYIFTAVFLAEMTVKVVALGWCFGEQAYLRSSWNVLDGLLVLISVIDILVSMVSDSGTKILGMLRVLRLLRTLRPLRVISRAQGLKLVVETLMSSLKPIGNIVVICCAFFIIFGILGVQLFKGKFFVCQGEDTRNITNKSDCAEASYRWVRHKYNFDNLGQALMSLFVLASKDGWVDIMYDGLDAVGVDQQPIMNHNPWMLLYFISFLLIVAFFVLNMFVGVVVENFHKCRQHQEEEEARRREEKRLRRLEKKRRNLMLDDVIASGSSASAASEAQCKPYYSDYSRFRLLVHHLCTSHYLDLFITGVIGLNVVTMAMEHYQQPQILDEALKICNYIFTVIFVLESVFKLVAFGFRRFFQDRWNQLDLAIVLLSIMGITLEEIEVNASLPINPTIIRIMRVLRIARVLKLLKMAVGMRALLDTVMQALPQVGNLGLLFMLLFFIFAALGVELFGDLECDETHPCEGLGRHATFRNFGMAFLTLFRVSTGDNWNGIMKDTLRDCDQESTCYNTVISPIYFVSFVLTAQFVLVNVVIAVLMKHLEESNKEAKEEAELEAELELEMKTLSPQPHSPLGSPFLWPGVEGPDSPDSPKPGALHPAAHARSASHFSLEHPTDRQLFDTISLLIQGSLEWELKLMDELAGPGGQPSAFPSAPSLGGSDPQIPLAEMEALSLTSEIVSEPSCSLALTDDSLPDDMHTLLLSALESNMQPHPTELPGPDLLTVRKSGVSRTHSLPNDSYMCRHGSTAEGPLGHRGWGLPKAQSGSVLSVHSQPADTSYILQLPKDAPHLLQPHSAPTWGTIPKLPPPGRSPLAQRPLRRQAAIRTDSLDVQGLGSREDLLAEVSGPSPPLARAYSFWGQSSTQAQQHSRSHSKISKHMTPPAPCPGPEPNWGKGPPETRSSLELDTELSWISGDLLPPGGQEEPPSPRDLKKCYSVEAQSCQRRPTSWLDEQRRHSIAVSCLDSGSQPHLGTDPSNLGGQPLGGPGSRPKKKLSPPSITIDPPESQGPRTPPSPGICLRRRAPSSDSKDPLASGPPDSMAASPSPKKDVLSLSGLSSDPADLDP
- experimental-details: Inhibition of T-type CaV3.1 channel (unknown origin) expressed in HEK293 cells assessed as inhibition of calcium current by whole cell patch-clamp method
Task for the reader: assign each of the following compounds its reported pIC50.
Please treat pIC50 as minus the base-10 logarithm of the molar concentration.

Which pIC50 is listed for CN(C)CCN1CCN(C2=Nc3ccccc3C(CC(=O)OCc3ccccc3)N2c2ccc(-c3ccccc3)cc2)CC1 (stereo not given) ?
5.74

Next compound up: CN(C)CCN1CCN(C2=Nc3ccccc3C(CC(=O)NCc3ccccc3)N2c2ccc(C3CCCCC3)cc2)CC1.Cl (stereo not given)
5.98

Next compound up: CN(C)CCN1CCN(C2=Nc3ccccc3C(CC(=O)NCc3ccc(N(S(C)(=O)=O)S(C)(=O)=O)cc3)N2c2ccc(-c3ccccc3)cc2)CC1.Cl (stereo not given)
6.28

Next compound up: COc1ccc(CNC(=O)CC2c3ccccc3N=C(N(C)CCCCCCN(C)C)N2c2ccc3ccccc3c2)cc1.Cl (stereo not given)
6.14

Next compound up: CN(C)C(=O)NCCCN(C)C1=Nc2ccccc2C(CC(=O)NCc2ccc(F)cc2)N1c1ccc(-c2ccccc2)cc1.Cl (stereo not given)
6.22
